Reported IC50 by item:
molecular target: HLA DRB1*01:01 (Homo sapiens, UniProt P01903+P01911, A100R/D57E/F55L/F60I/F76Y/I96L/L162R/M171V/P40L/Q125E/R42F/V115G/Y59C); test: biochemical; assay type: binding; settings: binder threshold 1,000 nM, read-out: In vitro (IC50 nM) DRB1*01:01
Give the number; nM is assumed, so skip it.

Previously resolved entries follow.
>  <Compound>
CC(C)C[C@H](NC(=O)[C@H](Cc1ccc(O)cc1)NC(=O)[C@H](C)NC(=O)[C@H](Cc1ccc(O)cc1)NC(=O)[C@H](Cc1ccccc1)NC(=O)[C@H](CCC(=O)O)NC(=O)[C@H](CC(N)=O)NC(=O)[C@@H](NC(=O)[C@H](Cc1ccccc1)NC(=O)[C@H](CC(=O)O)NC(=O)[C@@H](NC(=O)[C@H](CC(=O)O)NC(=O)[C@@H](NC(=O)[C@@H](N)CC(=O)O)C(C)C)[C@@H](C)O)C(C)C)C(=O)N[C@@H](CCCNC(=N)N)C(=O)O [Peptide 148]

>  <Readout units>
nM

>  <IC50>
856

$$$$
>  <Compound>
CC[C@H](C)[C@H](NC(=O)[C@H](CCSC)NC(=O)[C@H](CCSC)NC(=O)[C@H](CO)NC(=O)[C@H](Cc1ccccc1)NC(=O)[C@H](Cc1c[nH]cn1)NC(=O)[C@H](CCCCN)NC(=O)[C@H](CCCNC(=N)N)NC(=O)[C@H](CC(C)C)NC(=O)[C@H](Cc1ccc(O)cc1)NC(=O)[C@H](C)NC(=O)[C@@H](N)Cc1ccc(O)cc1)C(=O)N[C@@H](CC(C)C)C(=O)N[C@@H](CO)C(=O)N[C@@H](CC(=O)O)C(=O)O [Peptide 150]

>  <Readout units>
nM

>  <IC50>
495

$$$$
>  <Compound>
CC(C)C[C@H](NC(=O)[C@H](CCCNC(=N)N)NC(=O)[C@H](Cc1ccc(O)cc1)NC(=O)[C@H](Cc1ccccc1)NC(=O)[C@@H](N)CCCNC(=N)N)C(=O)N[C@@H](C)C(=O)N[C@@H](CC(N)=O)C(=O)N[C@@H](CCC(=O)O)C(=O)N[C@@H](CS)C(=O)N[C@@H](C)C(=O)N[C@@H](CCC(N)=O)C(=O)N[C@H](C(=O)N[C@@H](CC(C)C)C(=O)N[C@@H](CO)C(=O)N[C@@H](CCC(=O)O)C(=O)O)C(C)C

>  <Readout units>
nM

>  <IC50>
53

$$$$

QUERY: Return value of IC50 for input CC(C)[C@H](NC(=O)[C@H](CO)NC(=O)[C@H](CC(N)=O)NC(=O)[C@H](C)NC(=O)[C@H](Cc1ccc(O)cc1)NC(=O)[C@H](C)NC(=O)[C@@H](NC(=O)[C@@H](NC(=O)[C@H](C)NC(=O)[C@H](CC(=O)O)NC(=O)CNC(=O)[C@H](CO)NC(=O)[C@@H](N)CO)[C@@H](C)O)[C@@H](C)O)C(=O)N[C@@H](Cc1ccccc1)C(=O)N[C@@H](CC(N)=O)C(=O)O [Peptide 137] , no commentary.
RESULT: 1800

QUERY: Supply IC50 value. Item: CC[C@H](C)[C@H](NC(=O)[C@@H]1CCCN1C(=O)[C@H](CCSC)NC(=O)[C@H](CC(C)C)NC(=O)[C@H](CC(C)C)NC(=O)[C@H](CO)NC(=O)[C@H](Cc1ccc(O)cc1)NC(=O)[C@H](Cc1ccc(O)cc1)NC(=O)[C@@H](N)CO)C(=O)N[C@@H](CC(C)C)C(=O)N[C@H](C(=O)N[C@@H](CC(C)C)C(=O)N[C@H](C(=O)N[C@@H](CCCNC(=N)N)C(=O)N[C@@H](C)C(=O)O)[C@@H](C)O)[C@@H](C)O
RESULT: 7.7

QUERY: Retrieve IC50 measured for CC[C@H](C)[C@H](NC(=O)[C@@H](NC(=O)[C@@H]1CCCN1C(=O)[C@@H](NC(=O)[C@@H](NC(=O)[C@H](CC(N)=O)NC(=O)[C@H](CCCNC(=N)N)NC(=O)[C@H](CCCCN)NC(=O)[C@@H](NC(=O)[C@H](Cc1ccc(O)cc1)NC(=O)[C@H](C)NC(=O)[C@H](Cc1ccccc1)NC(=O)[C@H](CC(C)C)NC(=O)[C@H](C)N)[C@@H](C)O)C(C)C)[C@@H](C)CC)[C@@H](C)O)C(=O)N[C@H](C(=O)O)[C@@H](C)O and print it.
RESULT: 7360

QUERY: Entry CC[C@H](C)[C@H](NC(=O)[C@H](CC(=O)O)NC(=O)[C@H](CS)NC(=O)[C@H](CCSC)NC(=O)[C@@H](NC(=O)[C@@H]1CCCN1C(=O)[C@H](CC(C)C)NC(=O)[C@H](CC(N)=O)NC(=O)[C@H](Cc1ccc(O)cc1)NC(=O)[C@H](CCCNC(=N)N)NC(=O)[C@@H](N)Cc1ccc(O)cc1)[C@@H](C)O)C(=O)N[C@@H](CCCNC(=N)N)C(=O)N[C@@H](CCC(N)=O)C(=O)N[C@@H](CC(C)C)C(=O)N[C@@H](CC(C)C)C(=O)O [Peptide 92] needs its IC50 filled in; supply it.
RESULT: 12000

QUERY: Give IC50 for the following compound: CC[C@H](C)[C@H](NC(=O)[C@@H]1CCCN1C(=O)[C@H](CCSC)NC(=O)[C@@H](N)CC(C)C)C(=O)N[C@@H](CC(C)C)C(=O)N[C@H](C(=O)N[C@@H](CC(C)C)C(=O)N[C@H](C(=O)N[C@@H](CCCNC(=N)N)C(=O)N[C@@H](C)C(=O)N[C@@H](CC(C)C)C(=O)N[C@H](C(=O)N[C@@H](C)C(=O)N[C@@H](CCC(=O)O)C(=O)N[C@@H](CO)C(=O)O)[C@@H](C)O)[C@@H](C)O)[C@@H](C)O
RESULT: 136

QUERY: Provide only the value of recorded IC50 for CC(C)C[C@H](NC(=O)[C@H](C)NC(=O)[C@H](CC(=O)O)NC(=O)[C@H](CCC(N)=O)NC(=O)[C@H](CC(=O)O)NC(=O)[C@H](CCC(=O)O)NC(=O)[C@@H](N)Cc1ccc(O)cc1)C(=O)N[C@@H](Cc1ccccc1)C(=O)N[C@@H](C)C(=O)N[C@@H](Cc1ccc(O)cc1)C(=O)N[C@H](C(=O)N[C@@H](CCCCN)C(=O)N[C@@H](CCCNC(=N)N)C(=O)N[C@@H](CC(N)=O)C(=O)N[C@H](C(=O)O)C(C)C)[C@@H](C)O [Peptide 105]
RESULT: 16000

QUERY: Specify IC50 for CSCC[C@H](NC(=O)[C@H](CO)NC(=O)[C@H](Cc1ccccc1)NC(=O)[C@H](Cc1c[nH]cn1)NC(=O)[C@H](CCCCN)NC(=O)[C@H](CCCNC(=N)N)NC(=O)[C@H](CC(C)C)NC(=O)[C@H](Cc1ccc(O)cc1)NC(=O)[C@H](C)NC(=O)[C@H](Cc1ccc(O)cc1)NC(=O)[C@H](Cc1ccccc1)NC(=O)[C@H](CCC(=O)O)NC(=O)[C@H](CC(N)=O)NC(=O)[C@@H](NC(=O)[C@@H](N)Cc1ccccc1)C(C)C)C(=O)O and stop.
RESULT: 36100

Just for reference, paper PMC10196118 is where these values come from.
